meta.source: PubChem BioAssay

- System: glycogen synthase kinase-3 (GSK3A per assay name; protocol says GSK3B)
- PROTOCOL: GSK3 binders on small-molecule microarrays, primary screen, biochemical, small-molecule microarray, 635 nm fluorescence, GSK3A (AID 1103); also: the record names both GSK3A and GSK3B
- CONDITION: small-molecule microarray binding, fluorescence 635 nm; higher = more signal
ASSAY ENDPOINT: composite z-score
A bare number is all that is needed in reply.

So for C[C@@H]1CC[C@H]2C(=O)OC(CN3C(=O)c4ccccc4C3=O)CN2[C@H]1c1ccc(Br)cc1 (stereo partly drawn) , the logged composite z-score turned out to be -0.0067

So for COC(=O)CC=C[C@@H](C)[C@@H](C=NOC[C@@H](C)[C@H](OCc1ccccc1)C(C)C)NS(=O)(=O)c1ccc(C)cc1 , the logged composite z-score turned out to be -1.15

So for CCN1C(C)=C(C(=O)OC)[C@@H](c2ccccc2)N2C(=O)[C@](O)(C(=O)OC)CC(C(C)=O)=C12 , the logged composite z-score turned out to be 0.489

So for CCOC(=O)[C@H](CC(C)C)NC(=O)CCC1CC(OC(=O)NCc2ccc3c(c2)OCO3)CC2(CCCC(COC(=O)NCCC(C)C)O2)O1 (stereo partly drawn) , the logged composite z-score turned out to be -0.322

So for CC(C)=NOC(C)CN1CCCc2nc(C)c(C)cc21 (stereo not drawn) , the logged composite z-score turned out to be 1.1

So for O=C1C2=CC[C@H]3C(=O)N(Cc4ccccc4)C(=O)[C@H]3[C@H]2[C@H](O)[C@@H]2O[C@H]12 , the logged composite z-score turned out to be -0.569

So for COc1ccc(OC[C@H]2CN3[C@@H](CC[C@@H](C)[C@@H]3c3ccc(Br)cc3)C(=O)O2)cc1 , the logged composite z-score turned out to be 0.16

So for CCOC(=O)[C@H](Cc1ccccc1)NC(=O)CCC1CC(OC(=O)NCc2ccc3c(c2)OCO3)CC2(CCCC(COC(=O)NCCc3ccc(Cl)cc3)O2)O1 (stereo partly drawn) , the logged composite z-score turned out to be 1.27

* * *

- PROTOCOL: E. coli growth modulation, two-sided OD650, primary screen, E. coli filamentation project, strain DRC41, 24 h (AID 1093);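 also: MC1000 strain lacking acrAB efflux and sulA so SOS filamentation is blocked; test concentration not given here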
- CONDITION: OD650, 24 h, higher = more signal, called active from +8 up or from −8 down
Activity calls are given as the source filed them.
ASSAY ENDPOINT: z-score

So for C#CCCCON=C1C[C@@H](O)[C@@H](O)[C@@H]2[C@@H]3C(=O)N(C[C@@H]4CCCO4)C(=O)[C@@H]3CC[C@H]12 , the logged z-score turned out to be 0.397 (inactive)

So for COC(=O)[C@H](CCSC)NC(=O)CC=C[C@@H](C)CO , the logged z-score turned out to be 0.612 (inactive)

So for CCOC(=O)CCN1C(=O)[C@H]2[C@H]3[C@H](O)[C@H](O)CC(=NOCC(C)C)[C@@H]3CC[C@H]2C1=O , the logged z-score turned out to be -0.127 (inactive)

So for CCOC(=O)NN=C1C[C@@H](O)[C@@H](O)[C@@H]2[C@@H]3C(=O)N(CC)C(=O)[C@@H]3CC[C@H]12 , the logged z-score turned out to be 0.312 (inactive)

So for CC(CCN1CCc2nc(-c3ccccc3)c(-c3ccccc3)cc2C1)=NO[C@H](C)c1cn([C@H](CO)Cc2ccccc2)nn1 , the logged z-score turned out to be 0.561 (inactive)

So for C[C@@H]1CC[C@H]2C(=O)O[C@@H](COc3ccc(C(C)(C)C)cc3)CN2[C@H]1c1ccc(Br)cc1 , the logged z-score turned out to be 0.113 (inactive)

So for Cc1cc2c(nc1C)CCCCN2CC(O)CN1CCCc2nc(-c3ccc(Br)cc3)ccc21 (stereo not given) , the logged z-score turned out to be 0.353 (inactive)

So for C[C@@H]1CC[C@H]2C(=O)OC(CN3C(=O)c4ccccc4C3=O)CN2[C@H]1c1ccc(Br)cc1 (stereo not given in full) , the logged z-score turned out to be 0.725 (inactive)

So for COC(=O)[C@H](C)NC(=O)CCC1CC(OC(=O)NCc2ccc3c(c2)OCO3)CC2(CCCC(COC(=O)NCCc3ccc(Cl)cc3)O2)O1 (stereo not given in full) , the logged z-score turned out to be 0.181 (inactive)

So for CC(C)(C)N1C(=O)[C@H]2[C@H]3[C@H](O)[C@H](O)CC(=NOC[C@@H](O)COCc4ccco4)[C@H]3CC[C@H]2C1=O , the logged z-score turned out to be 0.697 (inactive)

So for CC(=O)OC[C@H]1O[C@H](CC=NO[C@H](C)c2cn([C@@H]3COC[C@H]3O)nn2)C=C[C@@H]1OC(C)=O , the logged z-score turned out to be -0.763 (inactive)

So for CC(C)=CCCC(C)=CCON=C1C[C@@H](O)[C@@H](O)[C@@H]2[C@@H]3C(=O)N(c4cccc(Oc5ccccc5)c4)C(=O)[C@@H]3CC[C@H]12 , the logged z-score turned out to be 0.204 (inactive)

So for CO[C@H]1COC(=O)[C@H](CCSC)NC(=O)CC=C[C@@H](C)[C@H](OC)COC(=O)[C@@H](OCc2ccccc2)C=C[C@@H]1C , the logged z-score turned out to be -0.317 (inactive)

So for CC(=O)OC[C@H]1O[C@H](CC=NOC[C@@H](O)COCc2ccco2)C=C[C@@H]1OC(C)=O , the logged z-score turned out to be 0.53 (inactive)

So for CCN1C(=O)[C@H]2[C@H]3[C@H](O)[C@H](O)CC(=NOCC[C@@H]4C=C[C@H](OC(C)=O)[C@@H](COC(C)=O)O4)[C@@H]3CC[C@H]2C1=O , the logged z-score turned out to be 0.0628 (inactive)
